Sourced from the Kinase Knowledgebase extract (Sharma et al. 2016)

Target: CDK2 (UniProt P24941)
Assay: Enzyme Assay
pIC50: −log10 of the molar value.

chemical smiles | system | pIC50
CN[C@H](C(=O)Nc1ccc(Nc2cc(-c3ccccc3OC)ncn2)cc1)c1ccccc1 | CDK2 (UniProt P24941) | 5.00 to 6.00
Nc1ccc(C(=O)Nc2ccc(Nc3cc(/C=C/c4ccccc4)ncn3)cc2)cc1 | CDK2 (UniProt P24941) | 3.60 to 5.00
Nc1ccc(C(=O)Nc2ccc(Nc3cc(-c4ccccc4)ncn3)cc2)cc1 | CDK2 (UniProt P24941) | 3.60 to 5.00
Cc1ccc(Nc2cc(-c3cccc(C=O)c3)ncn2)cc1NS(C)(=O)=O | CDK2 (UniProt P24941) | 5.00 to 6.00
Nc1ccc(C(=O)Nc2ccc(Nc3cc(-c4ccccc4OCc4ccccc4)ncn3)cc2)cc1 | CDK2 (UniProt P24941) | 5.00 to 6.00
CC(C)(C)C(=O)Nc1ccc(Nc2cc(-c3ccccc3F)ncn2)cc1 | CDK2 (UniProt P24941) | 3.60 to 5.00
Nc1ccc(C(=O)Nc2ccc(Nc3cc(-c4cccc(N)c4)ncn3)cc2)cc1 | CDK2 (UniProt P24941) | 5.00 to 6.00
Nc1ccc(C(=O)Nc2ccc(Nc3cc(-c4ccccc4O)ncn3)cc2)cc1 | CDK2 (UniProt P24941) | 3.60 to 5.00
Nc1ccc(C(=O)Nc2ccc(Nc3cc(-c4cccs4)ncn3)cc2)cc1 | CDK2 (UniProt P24941) | 3.60 to 5.00
CCOc1ccccc1-c1cc(Nc2ccc(NC(=O)c3ccc(N)cc3)cc2)ncn1 | CDK2 (UniProt P24941) | 5.00 to 6.00

---

Target: CDK2 (UniProt P24941)
Assay: Enzyme Assay
Let's look at some compounds and their measured IC50.
test readout: IC50

chemical smiles | test readout | reading
COc1ccccc1-c1cc(Nc2ccc(C(=O)Nc3ccc(O)cc3)cc2)ncn1 | IC50 | 1 to 10 µM
COc1ccccc1-c1cc(Nc2ccc(NC(=O)c3ccc4ccccc4n3)cc2)ncn1 | IC50 | 10 to 250 µM
COc1ccccc1-c1cc(Nc2ccc(C(=O)Nc3ccc(C(C)(C)C)cc3)cc2)ncn1 | IC50 | 10 to 250 µM
COc1ccccc1-c1cc(Nc2ccc(N3CCCC3=O)cc2)ncn1 | IC50 | 0.001 to 1 µM
COc1ccccc1-c1cc(Nc2ccc(NS(=O)(=O)c3ccccc3)cc2)ncn1 | IC50 | 0.001 to 1 µM
COc1cccc(-c2cc(Nc3ccc(NS(=O)(=O)c4ccc(C)cc4)cc3)ncn2)c1 | IC50 | 10 to 250 µM
COc1ccccc1-c1cc(Nc2ccc(NC(=O)C34CC5CC(CC(C5)C3)C4)cc2)ncn1 | IC50 | 10 to 250 µM
CS(=O)(=O)Nc1cc(Nc2cc(-c3cccc(N)c3)ncn2)ccc1OCc1ccccc1 | IC50 | 1 to 10 µM
COc1ccccc1-c1cc(Nc2ccc(NC(=O)c3c[nH]c4ccccc34)cc2)ncn1 | IC50 | 1 to 10 µM
COc1ccccc1-c1cc(Nc2ccc(NC(=O)C3(N)CCCC3)cc2)ncn1 | IC50 | 1 to 10 µM

---

Biological target: CDK2 (UniProt P24941)
Experiment: Enzyme Assay
Let's look at some molecules and their measured IC50.

molecule | system | IC50
COc1ccccc1-c1cc(Nc2ccc(NC(=O)Nc3ccc4c(c3)OCO4)cc2)ncn1 | CDK2 (UniProt P24941) | 10 to 250 µM
COc1ccccc1-c1cc(Nc2ccc(NC(=O)C(N)c3ccc4ccccc4c3)cc2)ncn1 (stereo not given) | CDK2 (UniProt P24941) | 1 to 10 µM
COc1ccccc1-c1cc(Nc2ccc(NC(=O)C3CC4CCC3C4)cc2)ncn1 (stereo not given) | CDK2 (UniProt P24941) | 10 to 250 µM
COc1ccccc1-c1cc(Nc2ccc(C(=O)NC3CCCCC3)cc2)ncn1 | CDK2 (UniProt P24941) | 1 to 10 µM
Cc1ccc(Nc2cc(-c3ccccc3O)ncn2)cc1NS(C)(=O)=O | CDK2 (UniProt P24941) | 0.001 to 1 µM
